# System: corn (Zea mays)
# ASSAY PROTOCOL: Test A postemergence
# Type: in vivo
# CONDITION NOTES: 500 g ai/ha, postemergence; 0 to 100 scale, 0 no effect, 100 complete control
Label yes when Plant response rating, Corn is at or above 40; anything below gets no.

A selection of reference data follows.
# COMPOUND, TARGET OR TEST SYSTEM, ASSIGNED CLASS
rows = [
    ("CN1CC(c2ccc3c(c2)OC(F)(F)O3)C(C(=O)Nc2ccc(F)cc2F)C1=O (centres unmarked)", "corn (Zea mays)", "yes"),
    ("CN1CC(c2ccc(C(F)(F)F)cc2F)C(C(=O)Nc2ccccc2F)C1=O (centres unmarked)", "corn (Zea mays)", "no"),
    ("O=C1NCC(c2ccc(F)c(F)c2)C1C(=O)Nc1ccc(Cl)cc1F (centres unmarked)", "corn (Zea mays)", "no"),
    ("O=C1NCC(c2ccoc2)C1C(=O)Nc1ccccc1C(F)(F)F (racemic)", "corn (Zea mays)", "no"),
    ("CN1CC(c2ccc(F)cc2)C(C(=O)Nc2ccccc2S(C)(=O)=O)C1=O (centres unmarked)", "corn (Zea mays)", "no"),
]

Q. Could you tell me if the measured Plant response rating, Corn of CC(=O)Oc1cccc(C2CNC(=O)C2C(=O)Nc2cccc(F)c2F)c1 (centres unmarked) reaches 40 or more?
A. no

Q. Could you tell me if the measured Plant response rating, Corn of Cc1cc(C2CNC(=O)C2C(=O)Nc2cccc(F)c2F)ccc1F (centres unmarked) reaches 40 or more?
A. yes

Q. Could you tell me if the measured Plant response rating, Corn of CN1CC(c2cccc(OC(F)(F)C(F)F)c2)C(C(=O)Nc2ccccc2C(F)(F)F)C1=O (centres unmarked) reaches 40 or more?
A. yes

Q. Could you tell me if the measured Plant response rating, Corn of O=C1NCC(c2cccc(C#Cc3ccccc3)c2)C1C(=O)Nc1cccc(F)c1F (centres unmarked) reaches 40 or more?
A. no

Q. Could you tell me if the measured Plant response rating, Corn of CC(C)c1ccc(C2CNC(=O)C2C(=O)Nc2cccc(F)c2F)cc1 (centres unmarked) reaches 40 or more?
A. no

Q. Could you tell me if the measured Plant response rating, Corn of Cc1cc(C2CN(C)C(=O)C2C(=O)Nc2ccccc2C(F)(F)F)ccc1F (centres unmarked) reaches 40 or more?
A. yes

Q. Could you tell me if the measured Plant response rating, Corn of CC(C)c1ccc(C2CNC(=O)C2C(=O)Nc2ccccc2F)cc1 (centres unmarked) reaches 40 or more?
A. no

Q. Could you tell me if the measured Plant response rating, Corn of O=C1NCC(c2ccccc2-c2ccccc2)C1C(=O)Nc1ccc(F)c(F)c1F (racemic) reaches 40 or more?
A. no

---

# System: rice (Oryra sativa)
# ASSAY PROTOCOL: Test B flooded paddy test
# Type: in vivo
# CONDITION NOTES: Oryza sativa, 250 g ai/ha, Flood; 0 to 100 scale where 0 is no effect and 100 is complete control; read-out: Rice plant response rating
QUANTITY MEASURED: pest or weed control at 250 g/ha (%)
Answers are plain numbers, in %.

# COMPOUND STRUCTURE, ENDPOINT UNIT, pest or weed control at 250 g/ha
rows = [
    ("CN1C[C@H](c2ccc(F)c(C#N)c2)[C@@H](C(=O)Nc2cccc(F)c2F)C1=O", "%", 0),
    ("CSc1ccccc1NC(=O)[C@H]1C(=O)N(C)C[C@@H]1c1ccc(F)cc1", "%", 35),
    ("O=C1NC[C@H](c2ccc(OC(F)F)cc2)[C@H]1C(=O)Nc1ccc(F)cc1F", "%", 0),
]

Q. Which pest or weed control at 250 g/ha is listed for "CSc1ccccc1NC(=O)[C@H]1C(=O)N(C)C[C@@H]1c1ccc(OC(F)F)cc1" ?
A. 0

---

# System: barnyardgrass (Echinochloa crus-galli)
# ASSAY PROTOCOL: Test A preemergence
# Format: in vivo
# CONDITION NOTES: Echinochloa crus-galli, pre-emergence, 240 h, 125 g ai/ha, preemergence; 0 to 100 scale where 0 is no effect and 100 is complete control; read-out: Barnyardgrass plant response rating
QUANTITY MEASURED: pest or weed control at 125 g/ha

# COMPOUND, TARGET OR TEST SYSTEM, pest or weed control at 125 g/ha
measured = [
    ("Cc1cc(F)ccc1NC(=O)[C@H]1C(=O)NC[C@@H]1c1cccc(C(F)(F)F)c1", "barnyardgrass (Echinochloa crus-galli)", "70%"),
    ("Cc1cc([C@H]2CN(C)C(=O)[C@@H]2C(=O)Nc2ccccc2C(F)(F)F)ccc1Cl", "barnyardgrass (Echinochloa crus-galli)", "90%"),
    ("CN1C[C@H](c2cccc(F)c2)[C@@H](C(=O)Nc2ccccc2F)C1=O", "barnyardgrass (Echinochloa crus-galli)", "90%"),
    ("CN1C[C@H](c2cc(F)cc(F)c2)[C@@H](C(=O)Nc2ncc(C(F)(F)F)cc2F)C1=O", "barnyardgrass (Echinochloa crus-galli)", "30%"),
    ("C=CCOc1cccc(C2CN(C)C(=O)C2C(=O)Nc2cccc(F)c2F)c1 (centres unmarked)", "barnyardgrass (Echinochloa crus-galli)", "90%"),
]

# batch: return pest or weed control at 125 g/ha for each of the 2 compounds below
1. O=C1NC[C@H](c2ccc3c(c2)CCO3)[C@H]1C(=O)Nc1ccc(F)cc1F
2. COc1cc(C(F)(F)F)ccc1[C@H]1CN(C)C(=O)[C@@H]1C(=O)Nc1ccccc1F

A.
["40%", "90%"]

Q. Which pest or weed control at 125 g/ha is listed for "CN1CC[C@H](c2ccc(F)cc2)[C@@H](C(=O)Nc2ccccc2F)C1=O" ?
A. 20%

---

# System: pigweed (Amaranthus retroflexus)
# ASSAY PROTOCOL: Test A postemergence
# Assay type: in vivo
# CONDITION NOTES: Amaranthus retroflexus, post-emergence, 240 h, 125 g ai/ha, postemergence, visual injury rating after approximately 10 d; read-out: Pigweed plant response rating (0 to 100 scale, 0 no effect, 100 complete control)
I'd be grateful if you could share measured pest or weed control at 125 g/ha for these entries.
Answers are plain numbers, in %.

# COMPOUND STRUCTURE, QUANTITY MEASURED, ENDPOINT UNIT, READING
records = [
    ("CN1C[C@H](c2cc(F)cc(F)c2)[C@@H](C(=O)Nc2ncc(C(F)(F)F)cc2F)C1=O", "pest or weed control at 125 g/ha", "%", 0),
    ("CN1CC[C@H](c2ccc3c(c2)OC(F)(F)O3)[C@@H](C(=O)Nc2cccc(F)c2F)C1=O", "pest or weed control at 125 g/ha", "%", 0),
    ("COc1c(F)ccc([C@H]2CNC(=O)[C@@H]2C(=O)Nc2ccccc2F)c1Cl", "pest or weed control at 125 g/ha", "%", 0),
]

# batch: return pest or weed control at 125 g/ha for each of the 8 compounds below
1. CN1C[C@H](c2cc(F)c(C(F)(F)F)c(F)c2)[C@@H](C(=O)Nc2cccc(F)c2F)C1=O
2. CN1CC[C@H](c2cccc(OC(F)(F)F)c2)[C@@H](C(=O)Nc2ccccc2C(F)(F)F)C1=O
3. CC(C)c1cccc([C@H]2CN(C)C(=O)[C@@H]2C(=O)Nc2ccccc2S(C)(=O)=O)c1
4. CN1C[C@H](c2cccc(F)c2)[C@@H](C(=O)Nc2ccccc2F)C1=O
5. COc1c(F)ccc([C@H]2CN(C)C(=O)[C@@H]2C(=O)Nc2cccc(F)c2F)c1Cl
6. Cc1c(F)ccc([C@H]2CN(C)C(=O)[C@@H]2C(=O)Nc2ccccc2C(F)(F)F)c1F
7. CCOc1ccc([C@H]2CNC(=O)[C@@H]2C(=O)Nc2ccccc2F)cc1
8. CN1CC[C@H](c2cccc(OC(F)(F)F)c2)[C@@H](C(=O)Nc2ccc(F)c(F)c2F)C1=O

A.
1. 40
2. 0
3. 20
4. 0
5. 20
6. 0
7. 0
8. 0

---

# Test system: velvetleaf (Abutilon theophrasti)
# ASSAY PROTOCOL: Test G Post-Emergence Protocol
# Type: in vivo
# CONDITION NOTES: Abutilon theophrasti, post-emergence, 312 h, 250 g ai/ha, evaluated after 13 days, 100=total damage to plant, 0=no damage to plant, read-out: Velvetleaf damage rating
QUANTITY MEASURED: pest or weed control at 250 g/ha (%)
Give bare numbers, in %.

Sample answers from the record:
# COMPOUND, QUANTITY MEASURED, READING
data = [
    ("CN1C[C@H](c2cccc(C(F)(F)F)c2)[C@@H](C(=O)Nc2cccc(F)n2)C1=O (racemic)", "pest or weed control at 250 g/ha", 40),
    ("CN1C[C@H](c2cccc(C(F)(F)F)c2)[C@@H](C(=O)Nc2cccnc2F)C1=O (racemic)", "pest or weed control at 250 g/ha", 40),
    ("CON1C[C@H](c2ccc(C(F)(F)F)cc2)[C@@H](C(=O)Nc2cccc(F)c2F)C1=O (racemic)", "pest or weed control at 250 g/ha", 50),
    ("CN1C[C@H](c2ccc(C(F)F)cc2)[C@@H](C(=O)Nc2cnccc2C(F)(F)F)C1=O (racemic)", "pest or weed control at 250 g/ha", 50),
    ("CC(C)OC(=O)c1cc([C@H]2CN(C)C(=O)[C@@H]2C(=O)Nc2ccccc2F)ccc1F (racemic)", "pest or weed control at 250 g/ha", 0),
]

# batch: return pest or weed control at 250 g/ha for each of the 2 compounds below
1. CN1C[C@H](c2cccc(C(F)(F)F)c2)[C@@H](C(=O)Nc2cc(O)ccc2F)C1=O (racemic)
2. Cc1c(F)cccc1NC(=O)[C@@H]1C(=O)N(C)C[C@H]1c1ccc2nonc2c1 (racemic)

A.
1: 0; 2: 30

# batch: return pest or weed control at 250 g/ha for each of the 6 compounds below
1. COC(=O)c1cc([C@H]2CN(C)C(=O)[C@@H]2C(=O)Nc2cccc(F)c2F)ccc1C (racemic)
2. CN1C[C@H](c2cccc(C(F)(F)F)c2)[C@@H](C(=O)Nc2cccc3c2S(=O)(=O)CC3)C1=O (racemic)
3. C=Cc1cccc([C@@H]2CN(C)C(=O)[C@H]2C(=O)Nc2cccc(F)c2F)c1 (racemic)
4. CN1CC(c2ccc(Cl)c([N+](=O)[O-])c2)C(C(=O)Nc2cccc(F)c2F)C1=O (stereo not drawn)
5. CN1C[C@@H](c2ccc(C(F)(F)F)cc2)[C@H](C(=O)Nc2cscn2)C1=O (racemic)
6. CN1C[C@H](c2cccc(C(F)(F)F)c2)[C@@H](C(=O)Nc2c(O)cccc2F)C1=O (racemic)

A.
[50, 10, 70, 60, 0, 0]

# batch: return pest or weed control at 250 g/ha for each of the 2 compounds below
1. Cc1cc([C@H]2CN(C)C(=O)[C@@H]2C(=O)Nc2ccccc2S(C)(=O)=O)cc(C(F)(F)F)c1 (racemic)
2. CCOc1cc([C@@H]2CN(C)C(=O)[C@H]2C(=O)Nc2cccc(F)c2C)ccc1F (racemic)

A.
1: 20; 2: 60
